SYSTEM TESTED: human CD33 R98A (human, UniProt P20138 18-364)
Sequence (P20138 18-364 R98A limits assumed): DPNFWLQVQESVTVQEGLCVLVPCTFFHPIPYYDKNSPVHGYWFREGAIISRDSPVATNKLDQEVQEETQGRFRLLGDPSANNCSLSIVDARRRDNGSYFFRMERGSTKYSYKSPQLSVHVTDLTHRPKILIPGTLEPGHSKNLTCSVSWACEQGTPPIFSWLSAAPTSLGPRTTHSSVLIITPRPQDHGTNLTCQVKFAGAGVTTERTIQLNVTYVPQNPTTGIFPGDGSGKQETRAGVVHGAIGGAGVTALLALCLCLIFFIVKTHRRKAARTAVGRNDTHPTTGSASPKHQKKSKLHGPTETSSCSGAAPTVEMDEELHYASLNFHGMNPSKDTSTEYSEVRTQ
ASSAY OVERVIEW: flow cytometry on HEK293-T, alanine scan
Give measured Mean % WT Binding for each item. Keep answers brief.
Response body: numeric value in % WT binding, unit text excluded.

## Input Which Mean % WT Binding is reported for this binder? Refmab #4 (antibody, V domains shown, The alanine scan used IgG or Fab) VH: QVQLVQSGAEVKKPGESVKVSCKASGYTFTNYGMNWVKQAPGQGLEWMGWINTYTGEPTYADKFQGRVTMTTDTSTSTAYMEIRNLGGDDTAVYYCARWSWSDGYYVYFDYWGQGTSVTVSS VL: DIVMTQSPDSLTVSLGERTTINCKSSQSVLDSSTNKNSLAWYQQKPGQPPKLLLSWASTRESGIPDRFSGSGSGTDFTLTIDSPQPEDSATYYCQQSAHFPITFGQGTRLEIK
## Output 128

## Input Item under review: Refmab #2 (antibody, V domains shown, The alanine scan used IgG or Fab) VH: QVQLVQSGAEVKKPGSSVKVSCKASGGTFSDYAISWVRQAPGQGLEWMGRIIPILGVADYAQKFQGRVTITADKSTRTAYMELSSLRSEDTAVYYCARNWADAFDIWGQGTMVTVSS VL: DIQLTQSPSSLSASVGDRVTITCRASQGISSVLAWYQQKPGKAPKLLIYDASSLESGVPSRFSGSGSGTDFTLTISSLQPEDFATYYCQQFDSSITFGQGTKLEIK . Reported Mean % WT Binding?
## Output 122

## Input Entry Refmab #1 (antibody, V domains shown, The alanine scan used IgG or Fab; also called hP67.6) VH: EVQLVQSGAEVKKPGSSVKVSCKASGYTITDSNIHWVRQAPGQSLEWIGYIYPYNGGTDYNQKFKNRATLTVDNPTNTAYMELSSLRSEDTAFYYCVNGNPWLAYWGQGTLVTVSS VL: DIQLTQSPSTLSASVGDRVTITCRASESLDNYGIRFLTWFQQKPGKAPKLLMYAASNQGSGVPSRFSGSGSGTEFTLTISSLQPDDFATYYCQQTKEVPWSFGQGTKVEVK has what Mean % WT Binding?
## Output 99.1

## Input Query: Mean % WT Binding; subject: Refmab #3 (antibody, V domains shown, The alanine scan used IgG or Fab) VH: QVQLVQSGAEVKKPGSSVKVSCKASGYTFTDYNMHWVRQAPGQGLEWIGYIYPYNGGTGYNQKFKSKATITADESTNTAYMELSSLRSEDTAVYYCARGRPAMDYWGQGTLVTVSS VL: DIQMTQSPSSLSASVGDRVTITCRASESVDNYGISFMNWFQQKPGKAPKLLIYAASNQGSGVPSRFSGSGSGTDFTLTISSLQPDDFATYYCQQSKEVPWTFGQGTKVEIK
## Output 102
